Overview of recorded pIC50 for various molecules
tested on: type II lung cells and vascular endothelial cells; assay: Pneumococcal adherence to EC and LC, results stated for both cell types together; type: cell-based, human; conditions: Homo sapiens, Endothelial cell, 0.5 h; activated cells (IL-1α-stimulated LC, TNFα-stimulated EC); R6 10^7 cfu/ml, 30 min, 37° C.; read-out: ED50 of inhibition of pneumococcal adherence
pIC50: −log10 of the molar value.
measured.attribute: pIC50

1) CCCOc1c(OC)cc([C@@H]2CC[C@@H](c3cc(OC)c(OC)c(OC)c3)O2)cc1S(C)(=O)=O (relative stereo) ... 7.30
2) Cc1nnc2n1-c1sc(CCC(=O)N3CCOCC3)cc1C(c1ccccc1Cl)=NC2 ... 8.00
